target: IGF1 (human, UniProt P05019); assay: ELISA
Attribute Measured: pEC50
Hey, just a heads up that pEC50 is the negative log base 10 of the concentration in molar.

Task item: Sample DVD041 IGF1,2 arm (antibody, V domains shown, DVD-Ig inner) VH: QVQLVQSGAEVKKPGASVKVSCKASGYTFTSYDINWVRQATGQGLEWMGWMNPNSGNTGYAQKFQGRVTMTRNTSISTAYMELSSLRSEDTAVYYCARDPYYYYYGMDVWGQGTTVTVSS VL: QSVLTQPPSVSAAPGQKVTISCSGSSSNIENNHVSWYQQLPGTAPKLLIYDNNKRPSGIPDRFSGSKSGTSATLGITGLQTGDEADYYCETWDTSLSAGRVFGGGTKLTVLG — what was its pEC50?
Reply: 6.42
